- MEASUREMENT TARGET: T1, recombinant human PCSK9 protein, His-tagged (Immunogen A, hPCSK9-His) (human, UniProt Q8NBP7 31-692, limits assumed, biotin-labelled in the ELISA and blocking assays (Biotin labeling kit))
- T1 construct: also called human PCSK9-His; recombinant hPCSK9-His; not shown: His tag
- ASSAY: ELISA, biotin-hPCSK9-His on streptavidin plate; antibody 0.000067 nM
Kindly state OD450 nm for each of the entries shown.
Response body: numeric value in OD450 nm, unit text excluded.

// 76A1B11, chimeric anti-PCSK9 mAb purified from hybridoma (antibody, V domains shown, From Harbour H2L2 mice: human variable regions, rat constant regions) VH: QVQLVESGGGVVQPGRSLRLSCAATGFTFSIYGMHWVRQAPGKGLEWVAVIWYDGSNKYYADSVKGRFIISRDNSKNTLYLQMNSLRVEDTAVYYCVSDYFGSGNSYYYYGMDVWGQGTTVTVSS VL: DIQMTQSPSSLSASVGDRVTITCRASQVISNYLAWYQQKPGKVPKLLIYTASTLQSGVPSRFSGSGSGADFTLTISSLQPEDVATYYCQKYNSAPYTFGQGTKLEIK : OD450 nm value = 0.2

Please fill in: OD450 nm reported for 74C10A8, chimeric anti-PCSK9 mAb purified from hybridoma (antibody, V domains shown, From Harbour H2L2 mice: human variable regions, rat constant regions) VH: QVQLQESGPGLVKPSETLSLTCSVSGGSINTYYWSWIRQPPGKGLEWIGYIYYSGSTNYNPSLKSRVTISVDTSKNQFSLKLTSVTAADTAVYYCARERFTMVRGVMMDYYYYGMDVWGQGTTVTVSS VL: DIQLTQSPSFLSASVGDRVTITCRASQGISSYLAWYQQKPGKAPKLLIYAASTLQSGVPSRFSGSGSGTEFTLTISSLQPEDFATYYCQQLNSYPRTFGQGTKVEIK = 0.19
